Readings of inhibition for the listed compounds
assay-target: Protein kinase C eta type (Homo sapiens);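 also: values are the mean percent inhibition of PKC-eta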
condition: at 0.1 µM
# output: bare number, implied unit %

Below are worked cases with known answers.
NC(=O)c1cc(-c2ccc(F)cc2)cc(-c2ccncc2)c1N :: 3.71
CCN(CC)Cc1ccc(Nc2nccc(-c3cnn4ncccc34)n2)cc1 :: 5.27
CN(C)CCCNc1nccc(-c2c(-c3ccc(F)cc3)nn3cc(C(F)(F)F)ccc23)n1 :: 6.55
Cc1ccc(C(=O)NC2CCC2)cc1-c1ccc(C(=O)NCC2CC2)cc1 :: 7.1
NC(=O)Cc1ccccc1Oc1nccc(-c2c(-c3ccc(F)cc3)ncn2C2CCNCC2)n1 :: 3.28
c1ccc(-c2n[nH]cc2-c2ccnc(-c3ccc(OCCN4CCOCC4)cc3)c2)nc1 :: -2.82
Cc1nnc(-c2ccc(C)c(-c3ccc(C(=O)NCc4ccc(Cl)cc4)cc3)c2)o1 :: 6.52
Fc1ccc(-c2nc3n(c2-c2ccncc2)CCS3)cc1 :: 4.25

Prompt line: Sample Fc1ccc(-c2ncn(C3CCNCC3)c2-c2ccnc(Oc3ccc(Oc4ccccc4)cc3)n2)cc1 — what was its inhibition?
Response line: 1.53

Prompt line: Sample COc1ccc(C2=C(N3CCc4ccccc43)C(=O)NC2=O)cc1 — what was its inhibition?
Response line: 2.61

Prompt line: Sample NS(=O)(=O)c1ccc(N/N=C2\C(=O)Nc3ccc(-c4cnco4)cc32)cc1 — what was its inhibition?
Response line: 3.38

Prompt line: Sample Clc1ccc(CNc2nccc(-c3cnn4ncccc34)n2)cc1 — what was its inhibition?
Response line: 2.3

Prompt line: Sample CN1CCN(CCCNc2nc3ccc(Oc4ccc(NC(=O)Nc5cc(C(F)(F)F)ccc5F)cc4)cc3[nH]2)CC1 — what was its inhibition?
Response line: 1.27

* * *

assay-target: Casein kinase I isoform alpha (Homo sapiens) (UniProt P48729);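 also: each value is a mean percent inhibition of the kinase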
Sequence (P48729 2-337 limits assumed): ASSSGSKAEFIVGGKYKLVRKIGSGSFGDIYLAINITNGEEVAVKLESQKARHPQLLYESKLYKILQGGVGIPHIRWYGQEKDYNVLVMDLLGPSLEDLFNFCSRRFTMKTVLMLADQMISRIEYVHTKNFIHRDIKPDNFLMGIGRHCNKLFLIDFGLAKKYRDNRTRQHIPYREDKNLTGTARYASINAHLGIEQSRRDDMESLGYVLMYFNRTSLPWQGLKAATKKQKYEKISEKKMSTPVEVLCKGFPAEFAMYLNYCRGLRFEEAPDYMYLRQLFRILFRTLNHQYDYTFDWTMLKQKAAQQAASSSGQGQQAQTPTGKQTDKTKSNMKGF
condition: at 1 µM
outcome-measure: inhibition (%)
# output: bare number, implied unit %

COc1cc(Nc2ncc3c(C)nc(-c4cccc(C(F)(F)F)c4)n3n2)cc(OC)c1OC :: 6.02
COc1cccc(/C=N/Nc2ncnc3c2cnn3-c2cccc(OC)c2)c1 :: 6.05
C[C@@H](Oc1cc(-n2cnc3ccc(OC4CCN(C)CC4)cc32)sc1C(N)=O)c1ccccc1Cl :: 6.16
COc1cc(C)c(N(C)C(=O)CN(C)C)cc1Nc1nc(Nc2cccc(F)c2C(N)=O)c2cc[nH]c2n1 :: 6
NS(=O)(=O)c1ccc(N/N=C2\C(=O)Nc3ccc(C(=O)NCCCn4ccnc4)cc32)cc1 :: 6.05

# ---- query compound ----
Prompt line: Sample O=C(Nc1n[nH]c2nc(-c3ccc(O)cc3)c(Br)cc12)C1CC1 — what was its inhibition?
Response line: 5.83

* * *

Readings of inhibition for the listed compounds
assay-target: Protein kinase C beta type (Homo sapiens) (UniProt P05771);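 also: GSK PKIS screen, average inhibition of the PKC-beta2 splice variant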
Sequence (P05771 2-671 limits assumed): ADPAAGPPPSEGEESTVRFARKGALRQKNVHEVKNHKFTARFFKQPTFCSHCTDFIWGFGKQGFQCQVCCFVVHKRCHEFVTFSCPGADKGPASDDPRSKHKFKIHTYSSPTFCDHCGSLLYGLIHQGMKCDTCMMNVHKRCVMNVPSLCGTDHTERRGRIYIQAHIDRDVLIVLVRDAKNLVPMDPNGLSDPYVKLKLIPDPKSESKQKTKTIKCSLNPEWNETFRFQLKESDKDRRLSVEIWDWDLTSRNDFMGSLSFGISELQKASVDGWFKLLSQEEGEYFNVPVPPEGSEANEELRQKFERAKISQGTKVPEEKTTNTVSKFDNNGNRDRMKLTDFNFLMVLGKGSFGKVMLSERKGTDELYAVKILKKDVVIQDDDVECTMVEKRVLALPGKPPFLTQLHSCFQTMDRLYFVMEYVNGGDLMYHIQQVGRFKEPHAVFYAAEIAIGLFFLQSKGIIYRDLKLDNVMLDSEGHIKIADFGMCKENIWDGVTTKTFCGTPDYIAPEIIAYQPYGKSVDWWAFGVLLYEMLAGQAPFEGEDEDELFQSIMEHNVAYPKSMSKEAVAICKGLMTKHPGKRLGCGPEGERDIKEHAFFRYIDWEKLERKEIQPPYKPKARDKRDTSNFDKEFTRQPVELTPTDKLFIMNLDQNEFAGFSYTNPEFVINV
condition: at 1 µM
Description: GSK_PKIS: PKC-beta2 (splice variant) mean inhibition at 1 uM [Nanosyn]
# output: bare number, implied unit %

Below are worked cases with known answers.
Fc1ccc(-c2ncn(CCCN3CCOCC3)c2-c2ccncc2)cc1 :: 0.17
NC(=O)c1cc(-c2ccncc2)cc(-c2ccccc2)c1N :: 2.02
Fc1ccc(-c2ncn(C3CCNCC3)c2-c2ccnc(Oc3ccc(Oc4ccccc4)cc3)n2)cc1 :: 12.4

Prompt line: Sample COc1cc(C)c(N(C)C(=O)CN(C)C)cc1Nc1nc(Nc2cccc(F)c2C(N)=O)c2cc[nH]c2n1 — what was its inhibition?
Response line: 0.92

* * *

assay-target: Tyrosine-protein kinase Tec (Homo sapiens) (UniProt P42680);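 also: each value is the mean of the inhibition measurements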
Sequence (whole entry): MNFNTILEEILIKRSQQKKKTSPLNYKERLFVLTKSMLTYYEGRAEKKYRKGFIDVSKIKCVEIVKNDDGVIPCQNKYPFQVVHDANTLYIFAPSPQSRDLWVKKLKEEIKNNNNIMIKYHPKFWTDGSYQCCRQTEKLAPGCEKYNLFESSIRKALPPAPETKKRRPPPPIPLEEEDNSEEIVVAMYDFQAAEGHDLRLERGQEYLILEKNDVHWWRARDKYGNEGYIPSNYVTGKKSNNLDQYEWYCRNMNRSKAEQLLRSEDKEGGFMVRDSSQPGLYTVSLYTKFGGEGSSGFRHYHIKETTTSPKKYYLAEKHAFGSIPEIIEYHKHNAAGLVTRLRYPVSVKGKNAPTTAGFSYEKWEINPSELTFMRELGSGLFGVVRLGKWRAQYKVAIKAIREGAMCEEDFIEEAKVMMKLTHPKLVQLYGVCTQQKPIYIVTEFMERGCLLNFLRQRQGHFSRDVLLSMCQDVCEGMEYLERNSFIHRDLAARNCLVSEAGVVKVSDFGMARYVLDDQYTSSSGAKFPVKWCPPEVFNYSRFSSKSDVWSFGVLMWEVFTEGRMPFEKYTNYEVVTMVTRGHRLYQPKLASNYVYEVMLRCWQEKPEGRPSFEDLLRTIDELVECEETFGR
condition: at 1 µM
outcome-measure: inhibition (%)
# output: bare number, implied unit %

Below are worked cases with known answers.
Fc1ccc(-c2ncn(CCCN3CCOCC3)c2-c2ccncc2)cc1 :: 2.36
COc1cc2ncn(-c3cc(OCc4ccccc4C(F)(F)F)c(C(C)=O)s3)c2cc1OC :: 5.16
Cc1nnc(-c2ccc(C)c(-c3ccc(C(=O)NCc4ccc(Cl)cc4)cc3)c2)o1 :: 0.03
FC(F)(F)c1cccc(Nc2nccc(-c3cnn4nc(-c5ccccc5)ccc34)n2)c1 :: 4.7
O=C(Nc1n[nH]c2nc(-c3ccco3)ccc12)C1CC1 :: 3.97

Prompt line: Sample CCN(CC)Cc1ccc(Nc2nccc(-c3cnn4ncccc34)n2)cc1 — what was its inhibition?
Response line: 3.21

Prompt line: Sample Fc1ccc(-c2c(-c3ccncc3)nc3n2CCS3)cc1 — what was its inhibition?
Response line: -0.75

Prompt line: Sample O=C(Nc1ccc(Oc2ccc3[nH]c(NC(=O)c4ccccc4)nc3c2)cc1)Nc1cc(C(F)(F)F)ccc1F — what was its inhibition?
Response line: 8.67

Prompt line: Sample C/C(Nc1ccc(S(N)(=O)=O)cc1)=C1/C(=O)Nc2ccccc21 — what was its inhibition?
Response line: -2.14

* * *

assay-target: Tyrosine-protein kinase Srms (Homo sapiens) (UniProt Q9H3Y6)
Sequence (Q9H3Y6 whole entry): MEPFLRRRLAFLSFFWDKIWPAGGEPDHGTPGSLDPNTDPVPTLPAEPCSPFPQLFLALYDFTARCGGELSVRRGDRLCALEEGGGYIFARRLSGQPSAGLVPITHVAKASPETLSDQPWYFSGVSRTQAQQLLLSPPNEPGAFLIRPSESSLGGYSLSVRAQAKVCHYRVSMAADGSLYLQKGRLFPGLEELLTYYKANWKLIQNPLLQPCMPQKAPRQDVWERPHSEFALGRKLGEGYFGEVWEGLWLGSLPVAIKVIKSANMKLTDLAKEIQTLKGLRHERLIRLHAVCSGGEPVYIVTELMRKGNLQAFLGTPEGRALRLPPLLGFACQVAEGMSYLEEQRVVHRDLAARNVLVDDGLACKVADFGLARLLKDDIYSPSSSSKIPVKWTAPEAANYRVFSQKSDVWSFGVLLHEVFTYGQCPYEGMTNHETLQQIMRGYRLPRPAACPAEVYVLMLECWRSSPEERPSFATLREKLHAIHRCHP
condition: at 1 µM
Description: GSK_PKIS: SRMS mean inhibition at 1 uM [Nanosyn]
outcome-measure: inhibition (%)
# output: bare number, implied unit %

COc1ccc(-c2ccc3c(NC(=O)C4CC4)n[nH]c3n2)cc1 :: 2.08
Fc1ccc(-c2ncn(C3CCNCC3)c2-c2ccnc(Oc3ccc4c(c3)OCO4)n2)cc1 :: -4.12
C[C@@H](Oc1cc(-n2cnc3ccc(OCC4CCN(C)CC4)cc32)sc1C(N)=O)c1ccccc1Cl :: -0.97

Prompt line: Sample O=C(Nc1ccc(Oc2ccc3[nH]c(NC(=O)c4ccccc4)nc3c2)cc1)Nc1cc(C(F)(F)F)ccc1F — what was its inhibition?
Response line: 4.56

Prompt line: Sample CN(c1ccc(NC(=O)Nc2c(Cl)cccc2Cl)cc1)c1ccnc(Nc2cccc(CS(C)(=O)=O)c2)n1 — what was its inhibition?
Response line: 3.99

Prompt line: Sample CCS(=O)(=O)c1ccc(OC)c(Nc2ncc(-c3ccccc3Cl)o2)c1 — what was its inhibition?
Response line: 3.31

Prompt line: Sample COc1cc(C)c(N(C)C(=O)CN(C)C)cc1Nc1nc(Nc2cccc(F)c2C(N)=O)c2cc[nH]c2n1 — what was its inhibition?
Response line: -1.33

Prompt line: Sample CCc1ccc(Oc2nccc(-c3c(-c4ccc(F)cc4)ncn3C3CCNCC3)n2)cc1 — what was its inhibition?
Response line: -0.39

Prompt line: Sample c1ccc(-c2n[nH]cc2-c2ccnc(-c3ccc(OCCN4CCOCC4)cc3)c2)nc1 — what was its inhibition?
Response line: 3.57

Prompt line: Sample NS(=O)(=O)c1ccc(Nc2cc(-c3ccc(O)c(F)c3)n[nH]2)cc1 — what was its inhibition?
Response line: 1.72

Prompt line: Sample C#Cc1cccc(Nc2ncnc3ccc(OCCCCNCCS(C)(=O)=O)cc23)c1 — what was its inhibition?
Response line: 5.07

Prompt line: Sample COc1cccc(-n2cnc3c(N/N=C/c4ccncc4)ncnc32)c1 — what was its inhibition?
Response line: 6.19

Prompt line: Sample COc1cccc(/C=N/Nc2ncnc3c2cnn3-c2cccc(OC)c2)c1 — what was its inhibition?
Response line: -3.63

* * *

assay-target: Receptor-type tyrosine-protein kinase FLT3 (Homo sapiens) (UniProt P36888);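 also: values are mean percent inhibition of FLT3 kinase activity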
Sequence (P36888 whole entry): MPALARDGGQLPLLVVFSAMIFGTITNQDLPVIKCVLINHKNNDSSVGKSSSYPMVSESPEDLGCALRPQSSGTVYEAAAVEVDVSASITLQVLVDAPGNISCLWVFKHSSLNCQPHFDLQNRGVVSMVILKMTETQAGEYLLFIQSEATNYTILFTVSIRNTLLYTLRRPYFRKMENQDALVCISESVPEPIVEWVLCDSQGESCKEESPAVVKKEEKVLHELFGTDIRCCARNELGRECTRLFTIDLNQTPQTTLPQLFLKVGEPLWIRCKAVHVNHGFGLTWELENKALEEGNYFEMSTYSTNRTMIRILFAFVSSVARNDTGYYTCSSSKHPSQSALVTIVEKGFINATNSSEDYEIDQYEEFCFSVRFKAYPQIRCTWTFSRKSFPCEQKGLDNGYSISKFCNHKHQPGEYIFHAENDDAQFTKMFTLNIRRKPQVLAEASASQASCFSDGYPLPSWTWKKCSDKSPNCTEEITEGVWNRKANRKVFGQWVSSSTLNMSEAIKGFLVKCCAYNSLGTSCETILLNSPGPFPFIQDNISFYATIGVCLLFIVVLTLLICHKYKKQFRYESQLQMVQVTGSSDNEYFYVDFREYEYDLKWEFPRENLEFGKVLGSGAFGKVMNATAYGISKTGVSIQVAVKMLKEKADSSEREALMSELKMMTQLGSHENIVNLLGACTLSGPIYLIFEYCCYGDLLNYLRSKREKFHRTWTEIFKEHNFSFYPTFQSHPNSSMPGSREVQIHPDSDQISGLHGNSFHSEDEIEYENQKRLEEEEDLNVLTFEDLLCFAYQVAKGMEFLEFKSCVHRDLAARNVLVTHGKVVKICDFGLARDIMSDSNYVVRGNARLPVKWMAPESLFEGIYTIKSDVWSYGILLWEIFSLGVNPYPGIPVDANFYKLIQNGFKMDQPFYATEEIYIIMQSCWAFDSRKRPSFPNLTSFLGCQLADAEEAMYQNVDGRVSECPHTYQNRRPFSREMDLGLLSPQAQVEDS
condition: at 1 µM
So basically every entry gets a class from its inhibition, ranges being category 1 (below 3%), category 2 (3% to below 9%), category 3 (9% or more)

Prompt line: Band assignment needed for Fc1ccc(-c2nc3n(c2-c2ccncc2)CCS3)cc1 please.
Response line: category 2

Prompt line: Band assignment needed for NC(=O)Cc1ccccc1Oc1nccc(-c2c(-c3ccc(F)cc3)ncn2C2CCNCC2)n1 please.
Response line: category 1

Prompt line: Band assignment needed for COc1cc(Nc2ncc3c(C)nc(-c4cccc(Oc5ccccc5)c4)n3n2)cc(OC)c1OC please.
Response line: category 3

Prompt line: Band assignment needed for CN(C)c1ccc2c(c1)/C(=C/Nc1ccc(S(N)(=O)=O)cc1)C(=O)N2 please.
Response line: category 3

Prompt line: Band assignment needed for O=C(Nc1n[nH]c2cc(-c3cc(F)ccc3F)ccc12)C1CC1 please.
Response line: category 2

Prompt line: Band assignment needed for COc1cc(C)c(N(C)C(=O)CN(C)C)cc1Nc1nc(Nc2cccc(F)c2C(N)=O)c2cc[nH]c2n1 please.
Response line: category 1

Prompt line: Band assignment needed for COc1ccc(-c2ccc3c(NC(=O)C4CC4)n[nH]c3n2)cc1 please.
Response line: category 2

Prompt line: Band assignment needed for CCC(=O)Nc1ccc(C)c(-c2ccc(C(=O)NCC3CC3)cc2)c1 please.
Response line: category 2
